Below are compounds with their Ki as measured on Tyrosine-protein phosphatase non-receptor type 1 (Homo sapiens, UniProt P18031).
Sequence (P18031 whole entry): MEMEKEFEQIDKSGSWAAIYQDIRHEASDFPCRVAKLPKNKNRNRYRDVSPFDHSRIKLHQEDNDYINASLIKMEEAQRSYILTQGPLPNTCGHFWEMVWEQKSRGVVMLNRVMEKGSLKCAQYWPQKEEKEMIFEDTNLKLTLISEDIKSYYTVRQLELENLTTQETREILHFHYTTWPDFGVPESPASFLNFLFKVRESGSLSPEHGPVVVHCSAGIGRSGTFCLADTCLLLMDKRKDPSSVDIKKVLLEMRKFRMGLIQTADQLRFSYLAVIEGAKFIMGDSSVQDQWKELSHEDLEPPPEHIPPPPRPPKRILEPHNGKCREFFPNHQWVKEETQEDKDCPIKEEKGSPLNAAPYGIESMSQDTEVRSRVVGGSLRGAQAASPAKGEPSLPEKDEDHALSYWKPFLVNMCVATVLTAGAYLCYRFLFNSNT
Report field: quantity (unit follows the number).

Here's what some known entries look like.
[
  {
    "Compound": "COC(=O)c1c(O)cccc1OCCCCNCCCc1ccc(N(C(=O)C(=O)O)c2ccccc2C(=O)O)c2ccccc12",
    "Result": "631 nM"
  },
  {
    "Compound": "COC(=O)c1c(O)cccc1OC[C@H]1C[C@H]1c1cccc(-c2cc(C(=O)O)no2)c1",
    "Result": "25100 nM"
  },
  {
    "Compound": "O=C(O)C(=O)N(c1ccccc1Cc1ccccc1)c1ccccc1C(=O)O",
    "Result": "25100 nM"
  },
  {
    "Compound": "O=C(O)c1ccc(O)cc1-n1c(=O)c(=O)oc2ccccc21",
    "Result": "1260 nM"
  },
  {
    "Compound": "CCc1cc(CC(NC(C)=O)C(=O)NCCCCC(=O)NC(Cc2cccs2)C(=O)O)ccc1N(C(=O)C(=O)O)c1ccccc1C(=O)O (centres undefined)",
    "Result": "398 nM"
  }
]

// batch mode: one Ki value per listed entry
1. O=C(O)C(=O)N(c1cc(O)ccc1C(=O)O)c1cccc2ccc(O)cc12
2. CC(=O)NC(Cc1ccc(N(C(=O)C(=O)O)c2ccccc2C(=O)O)c(CCO)c1)C(=O)O (centres undefined)
3. CCc1cc(CC(NC(C)=O)C(=O)NCCCCC(=O)N[C@@H](Cc2ccc(O)cc2)C(=O)O)ccc1N(C(=O)C(=O)O)c1ccccc1C(=O)O (some centres undefined)
4. CC(=O)NC(Cc1ccc(N(C(=O)C(=O)O)c2ccccc2C(=O)O)c2ccccc12)C(=O)NCCCCCOc1cc2ccccc2cc1C(=O)O (single isomer, unassigned)

["2000 nM", "6310 nM", "158 nM", "20 nM"]

====

Below are compounds with their pKi as measured on Tyrosine-protein phosphatase non-receptor type 1 (Homo sapiens, UniProt P18031).
Answers are plain numbers, as −log10 of the molar value.

[
  {
    "Compound": "CC(C)(C)OC(=O)Nc1ccc(O)c(-c2cc(C(=O)O)no2)c1",
    "pKi": 3.10
  }
]

// batch mode: one pKi value per listed entry
1. O=C(O)C(=O)N(c1cc(Cl)ccc1C(=O)O)c1cccc2ccc(O)cc12
2. CCCC[C@H](NC(=O)C(Cc1ccc(N(C(=O)C(=O)O)c2ccccc2C(=O)O)c2ccccc12)NC(=O)OC)C(=O)OC (stereo partly drawn)
3. COCCC(CN(C(=O)C(=O)O)c1ccc(CC(NC(=O)OC(C)(C)C)C(=O)NCCCCOc2cccc(O)c2C(=O)OC)cc1)C(=O)O (stereo not drawn)
4. O=C(O)C(=O)Nc1sc2c(c1C(=O)O)CCN(Cc1ccccc1)C2
5. CCSCC[C@H](NC(=O)CCCCNC(=O)C(Cc1ccc(N(C(=O)C(=O)O)c2ccccc2C(=O)O)c(CC)c1)NC(C)=O)C(=O)O (stereo partly drawn)
6. CCc1cc(CC(NC(C)=O)C(=O)NCCCCOc2cccc(O)c2C(=O)O)ccc1N(C(=O)C(=O)O)c1ccccc1C(=O)O (stereo not drawn)
7. CC(C)(C)OC(=O)Nc1cccc(-c2cc(C(=O)O)no2)c1

1. 5.40
2. 6.40
3. 5.10
4. 4.20
5. 6.90
6. 7.50
7. 3.70

====

- Assayed Target: Serine/threonine-protein kinase Chk1 (Homo sapiens, UniProt O14757)
- Sequence (O14757 whole entry): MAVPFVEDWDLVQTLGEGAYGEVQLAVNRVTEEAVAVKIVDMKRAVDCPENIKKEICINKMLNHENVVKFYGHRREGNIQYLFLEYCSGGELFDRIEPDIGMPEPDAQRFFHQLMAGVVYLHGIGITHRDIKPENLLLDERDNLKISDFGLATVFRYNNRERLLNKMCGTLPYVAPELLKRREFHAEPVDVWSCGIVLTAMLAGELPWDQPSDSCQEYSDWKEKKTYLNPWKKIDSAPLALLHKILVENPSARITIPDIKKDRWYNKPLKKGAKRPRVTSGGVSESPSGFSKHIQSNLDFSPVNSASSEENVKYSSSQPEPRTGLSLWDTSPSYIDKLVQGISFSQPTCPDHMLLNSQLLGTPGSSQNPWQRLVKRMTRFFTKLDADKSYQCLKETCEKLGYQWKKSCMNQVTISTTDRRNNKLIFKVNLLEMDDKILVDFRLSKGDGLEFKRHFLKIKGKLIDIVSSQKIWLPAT
Kindly state Ki for each of the entries shown.
Numbers only, in nM.

[
  {
    "Compound Structure": "CC(=O)Nc1cccc(-c2n[nH]c3c2Cc2cc(CN[C@H]4CC[C@H](C)CC4)ccc2-3)c1",
    "Assayed Target": "Serine/threonine-protein kinase Chk1 (Homo sapiens, UniProt O14757)",
    "Unit Of Measure": "nM",
    "Ki": 126
  },
  {
    "Compound Structure": "N[C@H](COc1cncc(-c2ccc3cnccc3c2)c1)Cc1c[nH]c2ccccc12",
    "Assayed Target": "Serine/threonine-protein kinase Chk1 (Homo sapiens, UniProt O14757)",
    "Unit Of Measure": "nM",
    "Ki": 5010
  },
  {
    "Compound Structure": "COC(=O)CCC1=NNC(=O)/C1=C\\c1c[nH]c2ncccc12",
    "Assayed Target": "Serine/threonine-protein kinase Chk1 (Homo sapiens, UniProt O14757)",
    "Unit Of Measure": "nM",
    "Ki": 3980
  },
  {
    "Compound Structure": "N#Cc1cnc(NC(=O)Nc2cc(Cl)ccc2OC2C[C@H](O)[C@@H](O)C2)cn1",
    "Assayed Target": "Serine/threonine-protein kinase Chk1 (Homo sapiens, UniProt O14757)",
    "Unit Of Measure": "nM",
    "Ki": 5.01
  }
]

# evaluate next
What does the record list as Ki for COc1cc2c(cc1OCCN1CCCCC1)-c1[nH]nc(-c3ccc(OCC(C)=O)cc3)c1C2 ?
126

====

- Assayed Target: Urokinase-type plasminogen activator (Homo sapiens, UniProt P00749)
Please assign no (0) whenever Ki is at or above 8 µM, and yes (1) whenever it is below.

Would you please look over these solved cases?
[
  {
    "Compound": "Nc1ccc2cccc(NS(=O)(=O)c3ccc4ccccc4c3)c2n1",
    "Assayed Target": "Urokinase-type plasminogen activator (Homo sapiens, UniProt P00749)",
    "Cat": "no (0)"
  },
  {
    "Compound": "NC1CCc2ccccc2C1 (stereo unspecified)",
    "Assayed Target": "Urokinase-type plasminogen activator (Homo sapiens, UniProt P00749)",
    "Cat": "no (0)"
  }
]

Report whether reported Ki is lower than 8 µM (strictly) for CN(C)Cc1ccc(/C=C/c2cc(Br)c3cc(C(=N)N)ccc3c2)o1
yes (1)

Report whether reported Ki is lower than 8 µM (strictly) for N=C(N)c1ccc2cccc(C(=O)NO)c2c1
yes (1)

Report whether reported Ki is lower than 8 µM (strictly) for Nc1ccc2cc(NC(=O)CCc3ccccc3)ccc2n1
no (0)

Report whether reported Ki is lower than 8 µM (strictly) for N=C(N)NC(=O)c1nc(-c2ccoc2)c(NCCCc2ccccc2)nc1N
yes (1)

Report whether reported Ki is lower than 8 µM (strictly) for Nc1ccc2nc(N)ccc2c1
no (0)

Report whether reported Ki is lower than 8 µM (strictly) for N=C(N)c1ccc2cc(/C=C/CCc3cccnc3)cc(Br)c2c1
yes (1)

Report whether reported Ki is lower than 8 µM (strictly) for Nc1ccc2cc(NCCc3ccccc3)cc(Nc3ncccn3)c2n1
yes (1)

Report whether reported Ki is lower than 8 µM (strictly) for N#Cc1ccccc1COc1cccc2ccc(N)nc12
no (0)

====

Kindly state pKi for each of the entries shown.
- Assayed Target: Serine/threonine-protein kinase Chk1 (Homo sapiens, UniProt O14757)
- Sequence (O14757 whole entry): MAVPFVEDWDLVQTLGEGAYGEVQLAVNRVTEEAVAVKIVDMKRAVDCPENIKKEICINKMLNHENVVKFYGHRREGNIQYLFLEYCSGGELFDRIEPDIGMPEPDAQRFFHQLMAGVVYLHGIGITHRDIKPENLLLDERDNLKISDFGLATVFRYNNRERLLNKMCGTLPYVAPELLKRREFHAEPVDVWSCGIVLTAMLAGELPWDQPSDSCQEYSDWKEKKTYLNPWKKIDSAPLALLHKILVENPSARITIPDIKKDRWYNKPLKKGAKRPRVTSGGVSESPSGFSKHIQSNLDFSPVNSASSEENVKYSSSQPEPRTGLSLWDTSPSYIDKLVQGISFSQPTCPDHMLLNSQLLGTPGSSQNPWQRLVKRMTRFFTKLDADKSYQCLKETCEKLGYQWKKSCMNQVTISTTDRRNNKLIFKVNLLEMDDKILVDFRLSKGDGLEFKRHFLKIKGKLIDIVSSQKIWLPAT
Give bare numbers, as −log10 of the molar value.

[
  {
    "Compound Structure": "COC(=O)Cc1ccc2c(c1)NC(=O)c1ccc(-c3ccc(S(N)(=O)=O)s3)cc1N2",
    "Readout Number": 6.60
  },
  {
    "Compound Structure": "CN(c1ccc2c(c1)Cc1c(-c3ccoc3)n[nH]c1-2)[C@H]1CC[C@H](O)CC1",
    "Readout Number": 6.60
  },
  {
    "Compound Structure": "COc1cc2c(cc1OC)-c1n[nH]c(-c3cccc(-c4cccnc4)c3)c1C2",
    "Readout Number": 6.90
  }
]

// batch mode: one pKi value per listed entry
1. COc1cccc(-c2ccc3c(c2)Nc2cc(OCc4ccncc4)c(OC)cc2NC3=O)c1
2. COc1cc(-c2ccc3c(-c4nc5ccccc5[nH]4)n[nH]c3n2)ccc1O
3. OCc1ccc2c(c1)Cc1c(-c3ccc(-c4ccc(O)cc4)cc3)n[nH]c1-2

1: 8.20; 2: 5.70; 3: 8.10

// batch mode: one pKi value per listed entry
1. Cc1n[nH]c(C)c1-c1ccccc1
2. COc1cc(-c2ccc3c(-c4nc5ccc(N)cc5[nH]4)n[nH]c3c2)ccc1O
3. O=C1Nc2cncc(n2)OCCCCCOc2ccc(Cl)cc2N1
4. N#Cc1cnc(NC(=O)Nc2cc3ccccc3cc2O)cn1

[4.00, 7.40, 8.10, 8.40]
